# assay: EWS/Fli-driven NR0B1 reporter inhibitors, primary screen, A673 cells, NR0B1 luciferase, luminescence, MLPCN library (AID 651661);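 further: firefly luciferase signal divided by Alamar Blue viability fluorescence both relative to DMSO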
# conditionDescription: viability-normalised, at 12.6 µM, active compounds read high
Hit rate of the full screen: of about 350,000 compounds, about 2,300 (0.66%) were called active. The list comes from a sample in which actives are over-represented; it also holds close analogues and randomly drawn compounds.
This section presents molecules with their documented inhibition values.
measurementName: inhibition (%)

molecule | experimentalResult
C[C@@H]1CCCCO[C@@H](CN(C)Cc2ccc3c(c2)OCO3)[C@@H](C)CN([C@@H](C)CO)C(=O)c2cc(NC(=O)Nc3ccccc3)ccc2O1 | -8.42
CS(=O)(=O)N1CC2(C1)[C@H](c1ccccc1)[C@H](CO)N2Cc1ccc(F)cc1 | -3.95
C[C@@H]1CCCCO[C@H](CN(C)CC2CCCCC2)[C@H](C)CN([C@H](C)CO)C(=O)c2cc(NS(=O)(=O)c3ccc(F)cc3)ccc2O1 | 24.8
C[C@H](CO)N1C[C@H](C)[C@@H](CN(C)C(=O)NC2CCCCC2)Oc2c(NC(=O)Nc3ccc(F)cc3)cccc2C1=O | 4.64
COc1cccc2c1C(=O)c1c(O)c3c(c(O)c1C2=O)CC(O)(C(C)=NNC(=O)c1ccc(Cl)c(Cl)c1)CC3OC1CC(N)C(O)C(C)O1 (stereo unspecified) | 63.6
C[C@H]1CCCCO[C@@H](CN(C)Cc2ccc(C(F)(F)F)cc2)[C@@H](C)CN([C@@H](C)CO)C(=O)c2cc(NC(=O)Nc3ccccc3)ccc2O1 | 19.3
C[C@@H]1CCCCO[C@H](CN(C)CC2CC2)[C@@H](C)CN([C@H](C)CO)C(=O)c2cc(NC(=O)Nc3ccc(F)cc3)ccc2O1 | -1.94
Cc1nc(N2[C@H](CO)[C@H](c3ccccc3)[C@H]2CNCC2CCCCC2)sc1C | -4.86
CC(C)C#Cc1ccc([C@H]2[C@@H](CO)N3CCCCN(C(=O)Nc4ccccc4)C[C@H]23)cc1 | 1.61
COc1ccc2c3c(n(C)c2c1)[C@H](CO)N(S(=O)(=O)c1ccc(C)cc1)CC31CN(C(=O)c2ccccn2)C1 | -3.69
COc1ccc(-c2nc(CCNC(=O)c3ccc(Br)o3)cs2)cc1 | -1.15
CCC(=O)N1C[C@H](C)[C@@H](OC)CN(C)C(=O)c2cc(NC(=O)c3cnccn3)ccc2OC[C@@H]1C | 2.51
Cc1ccccc1-c1ccc([C@H]2[C@@H](CO)N3C(=O)CN(C(=O)c4ccncc4)C[C@H]23)cc1 | 0.78
C[C@H]1CN([C@@H](C)CO)C(=O)c2cccc(NC(=O)Nc3ccc(C(F)(F)F)cc3)c2O[C@H]1CN(C)C(=O)NC1CCCCC1 | 56.1
C[C@H](O)C#Cc1ccc2c(c1)O[C@H](CN(C)C(=O)C1CCCCC1)[C@@H](C)CN([C@H](C)CO)S2(=O)=O | 2.27
C[C@H]1CCCCO[C@H](CN(C)CC2CCCCC2)[C@@H](C)CN([C@@H](C)CO)C(=O)c2cc(NS(=O)(=O)c3ccc(Cl)cc3)ccc2O1 | 61.5
C[C@@H]1CN([C@H](C)CO)C(=O)c2cc(NS(=O)(=O)c3cn(C)cn3)ccc2O[C@@H]1CN(C)Cc1ccc(C(=O)Nc2ccccc2N)cc1 | -4.91
CCCN(C)C[C@@H]1OCc2cnnn2CCCC(=O)N([C@H](C)CO)C[C@@H]1C | 0.738
C[C@@H]1CCCCO[C@@H](CN(C)Cc2ccc(C(F)(F)F)cc2)[C@@H](C)CN([C@H](C)CO)C(=O)c2cc(NC(=O)Nc3ccccc3)ccc2O1 | -6.47
C[C@@H]1CN([C@H](C)CO)C(=O)c2cc(NC(=O)Nc3ccccc3)ccc2O[C@@H](C)CCCCO[C@H]1CN(C)Cc1ccc(C(F)(F)F)cc1 | 71.6
COc1ccc(-c2nc3c(s2)CCc2onc(-c4ccc(OC)cc4)c2-3)cc1 | 65.6
